# System: L1210 leukemia ip in BDF1 mice, survival T/C
# assay comment: NCI In Vivo Anticancer Drug Screen. Data for tumor model L1210 Leukemia (intraperitoneal) in B6D2F1 (BDF1) mice
# assay context: endpoint: mean survival time; dose: 100.0 mg/kg/injection; schedule: Q01DX009 (ip); vehicle: saline with Tween-80; higher = longer survival
Toxic doses and inconclusive results are not listed.
property label: T/C

# annotated cases, reported T/C shown
compound	T/C
OC(c1ccc(Br)cc1)(c1cccs1)C1CC1 (stereo not drawn)	98 % of control
CCCCOC(=O)C=O	97 % of control
CC(C)(C)c1ccc(N)c([N+](=O)[O-])c1	87 % of control
C=CCNC(=O)Oc1cccc(NC(=O)/C=C/C)c1	88 % of control
Nc1ccc(CCCC(=O)NCc2cccnc2)cc1	105 % of control
O=C(N/N=C/c1ccccn1)c1ccc(Cl)cc1	86 % of control

Exam item: Entry CCOC(=O)c1ccc(NC(=O)C(Br)C(Br)C(=O)O)cc1 (stereo not drawn) has what T/C?
Marked response: 94 % of control

Exam item: Entry O=C1c2cc(-c3ccccc3)c(-c3ccccc3)cc2C(c2ccccc2)(c2ccccc2)C1(Cl)Cl has what T/C?
Marked response: 100 % of control
